Molecular target: T1, human nicotinic acetylcholine receptor α7 subunit, wild type (human, UniProt P36544 23-502)
T1 construct: also called Hα7; human α7 nAChR
T1 sequence (P36544 23-502): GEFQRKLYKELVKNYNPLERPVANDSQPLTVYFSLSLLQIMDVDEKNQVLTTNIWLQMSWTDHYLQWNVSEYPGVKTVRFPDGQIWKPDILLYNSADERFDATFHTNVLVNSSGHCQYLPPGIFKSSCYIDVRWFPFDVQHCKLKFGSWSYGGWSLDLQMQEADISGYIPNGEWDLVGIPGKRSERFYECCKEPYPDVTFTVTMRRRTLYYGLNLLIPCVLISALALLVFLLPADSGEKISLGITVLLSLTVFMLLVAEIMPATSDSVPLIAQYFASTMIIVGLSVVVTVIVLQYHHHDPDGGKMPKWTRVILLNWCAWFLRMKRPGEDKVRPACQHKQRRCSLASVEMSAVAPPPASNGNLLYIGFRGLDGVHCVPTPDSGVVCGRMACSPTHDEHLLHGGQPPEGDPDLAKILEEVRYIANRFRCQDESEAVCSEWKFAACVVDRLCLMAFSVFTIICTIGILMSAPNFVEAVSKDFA
Test: radioligand binding
Details: one partner purified
Recorded Metric: pEC50
Numbers only, as −log10 of the molar value.

What the record says about [3H]-α-bungarotoxin (natural protein) IVCHTTATSPISAVTCPPGENLCYRKMWCDAFCSSRGKVVELGCAATCPSKKPYEEVTCCSTDKCNPHPKQRPG : pEC50 is 7.70
